Tested on: rhythmic bladder contractions induced by substance P
assay_text: Inhibitory effect on the rhythmic bladder contractions induced by substance P in anesthetized rats
Format: in vivo, rat
condition_context: time during which frequency of rhythmic contraction was completely inhibited, 0.25 mg/kg of the compound, substance P infusion
assay_readout: 100% inhibition time range

> print(dat)
                                   compound                 obs.value
1  Cc1ccc(-c2nc(CC(=O)O)c(-c3ccsc3)o2)cc1 [Preparation Example 198]  C (A≧20>B≧10>C (minute))
2  CSCc1nc(-c2ccc(C#N)cc2)[nH]c1-c1ccccc1 [Preparation example 132]  B (A≧20>B≧10>C (minute))
3  CC(C(=O)O)c1nc(-c2ccc(F)cc2)oc1-c1ccsc1 (centres unmarked) [Preparation Example 613]  C (A≧20>B≧10>C (minute))
4  O=C(O)Cc1nc(-c2ccc(CO)cc2)oc1-c1ccc(Cl)s1 [Preparation Example 436]  C (A≧20>B≧10>C (minute))
5  COc1ccc(-c2nc(-c3ccc(Cl)s3)c(CC(=O)O)s2)cn1 [Preparation Example 591]  B (A≧20>B≧10>C (minute))
6  O=C(O)Cc1[nH]c(-c2cc3ccccc3s2)nc1-c1ccc(Cl)s1 [Preparation Example 351]  C (A≧20>B≧10>C (minute))
7  COc1ccc(-c2oc(-c3ccc(F)cc3)nc2CC(=O)O)cc1F [Preparation Example 250]  B (A≧20>B≧10>C (minute))
8  COCc1nc(-c2ccc(C#N)cc2)[nH]c1-c1cccnc1 [Preparation example 125]  C (A≧20>B≧10>C (minute))

Q. Please supply the value of reported 100% inhibition time range for the item O=C(O)Cc1nc(-c2ccc3c(c2)CCCS3)oc1-c1ccc(Cl)s1 [Preparation Example 456]
A. C (A≧20>B≧10>C (minute))

Q. Quick one: give measured 100% inhibition time range for COc1cc(-c2nc(CC(=O)O)c(-c3ccc(Cl)s3)o2)ccc1O [Preparation Example 289]
A. B (A≧20>B≧10>C (minute))

Q. Fill in reported 100% inhibition time range for this entry: O=C(O)Cc1nc(-c2ccc(F)cc2)oc1-c1cccs1 [Preparation Example 614]
A. C (A≧20>B≧10>C (minute))

* * *

Tested on: isolated rabbit urinary bladder
assay_text: Relaxation effect on potassium-induced contraction of isolated rabbit urinary bladder
Format: cell-based
condition_context: Oryctolagus cuniculus; 50% relaxation concentration; high-K+ (30 mM) pre-contracted rabbit bladder strips; relaxation as percentage of the maximum produced by 0.1 mM papaverine; read-out: EC50 value range
assay_readout: EC50

> print(dat)
                                   compound        obs.value
1        CCc1nc(-c2ccc(C)nc2)[nH]c1-c1ccsc1  1000 to 3000 nM
2  C[S+]([O-])Cc1nc(-c2cccc(F)c2)[nH]c1-c1ccccc1 (stereo not shown)   500 to 1000 nM
3  CN(C)c1ncc(-c2nc(CC(=O)O)c(-c3ccc(Cl)c(S)c3)o2)cn1  1000 to 3000 nM

Q. Determine from records and report EC50 for Cc1cccc(-c2nc(CC(=O)O)c(-c3cccs3)o2)c1
A. ≤ 500 nM

* * *

System: rhythmic bladder contractions induced by substance P
assay_text: Inhibitory effect on the rhythmic bladder contractions induced by substance P in anesthetized rats
Assay type: in vivo, rat
condition_context: time during which frequency of rhythmic contraction was completely inhibited, 0.25 mg/kg of the compound, substance P infusion
assay_readout: 100% inhibition time range

Check out these entries, answers already filled in.
> print(dat)
                              smiles.string                             target.entity                 obs.value
1    Cc1cccc(-c2nc(CC(=O)O)c(-c3cccs3)o2)c1  rhythmic bladder contractions induced by substance P  C (A≧20>B≧10>C (minute))
2    O=C(O)Cc1nc(-c2cc3ccccc3s2)oc1-c1ccsc1  rhythmic bladder contractions induced by substance P  B (A≧20>B≧10>C (minute))
3  O=C(O)/C=C/c1nc(-c2ccc(F)cc2)oc1-c1ccc(Cl)s1  rhythmic bladder contractions induced by substance P  C (A≧20>B≧10>C (minute))
4  CN(C)c1ccc(-c2nc(-c3ccc(Cl)s3)c(CC(=O)O)s2)cc1  rhythmic bladder contractions induced by substance P  A (A≧20>B≧10>C (minute))
5  COc1ccc(-c2nc(CC(=O)O)c(-c3ccc(Cl)c(F)c3)o2)cc1  rhythmic bladder contractions induced by substance P  A (A≧20>B≧10>C (minute))

Query compound follows.
Q. Fill in 100% inhibition time range for record CN(C)c1ncc(-c2nc(-c3cccs3)c(CC(=O)O)s2)cn1
A. C (A≧20>B≧10>C (minute))

* * *

System: rhythmic bladder contractions induced by substance P
assay_text: Inhibitory effect on the rhythmic bladder contractions induced by substance P in anesthetized rats
Type: in vivo, rat
condition_context: time during which frequency of rhythmic contraction was completely inhibited, 0.25 mg/kg of the compound, substance P infusion
assay_readout: 100% inhibition time range

> print(dat)
                              smiles.string               assay.readout                 obs.value
1    Cc1ccc(-c2nc(CC(=O)O)c(-c3cccs3)o2)cc1  100% inhibition time range  B (A≧20>B≧10>C (minute))
2  O=C(O)Cc1nc(-c2ccc(N3CCSC3)nc2)oc1-c1ccsc1  100% inhibition time range  B (A≧20>B≧10>C (minute))
3  O=C(O)Cc1nc(-c2ccc(F)cc2)oc1-c1cc(Cl)ccc1O  100% inhibition time range  C (A≧20>B≧10>C (minute))
4  CN(C)c1ccc(-c2nc(CC(=O)O)c(-c3ccc(Cl)s3)o2)cc1  100% inhibition time range  B (A≧20>B≧10>C (minute))

Q. Name the recorded 100% inhibition time range of CCc1[nH]c(-c2cc(Cl)sc2S(=O)(=O)O)nc1-c1cccnc1.Cl.Cl , assay system rhythmic bladder contractions induced by substance P.
A. C (A≧20>B≧10>C (minute))

Q. State measured 100% inhibition time range of the molecule CSc1ccc(-c2nc(CC(=O)O)c(-c3ccc(Cl)s3)o2)cc1 with rhythmic bladder contractions induced by substance P.
A. C (A≧20>B≧10>C (minute))

Q. Fill: 100% inhibition time range (rhythmic bladder contractions induced by substance P) for this molecule O=C(O)Cc1nc(-c2ccc(C(F)(F)F)cc2)oc1-c1cccs1
A. B (A≧20>B≧10>C (minute))

Q. Give 100% inhibition time range; test system rhythmic bladder contractions induced by substance P; molecule CS(=O)(=O)NCCc1nc(-c2ccc(F)cc2)oc1-c1ccsc1.[Na]
A. C (A≧20>B≧10>C (minute))

* * *

Test system: rhythmic bladder contractions induced by substance P
assay_text: Inhibitory effect on the rhythmic bladder contractions induced by substance P in anesthetized rats
Type: in vivo, rat
condition_context: time during which frequency of rhythmic contraction was completely inhibited, 0.25 mg/kg of the compound, substance P infusion
assay_readout: 100% inhibition time range

Answered examples (5):
> print(dat)
                                   compound               assay.readout                 obs.value
1  O=C(O)Cc1nc(-c2ccc(F)cc2)oc1-c1ccc2ncccc2c1  100% inhibition time range  C (A≧20>B≧10>C (minute))
2  CN(C)c1ncc(-c2nc(CC(=O)O)c(-c3ccc(Cl)c(S)c3)o2)cn1  100% inhibition time range  B (A≧20>B≧10>C (minute))
3  CS(=O)(=O)Cc1nc(-c2ccc(F)cc2)oc1-c1ccsc1  100% inhibition time range  C (A≧20>B≧10>C (minute))
4  Cn1c(-c2oc(-c3ccc(F)cc3)nc2CC(=O)O)cc2ccccc21  100% inhibition time range  B (A≧20>B≧10>C (minute))
5       CNc1[nH]c(-c2ccc(F)cc2)nc1-c1ccccc1  100% inhibition time range  B (A≧20>B≧10>C (minute))

Q. Provide only the value of recorded 100% inhibition time range for CCc1[nH]c(-c2ccc(F)cc2)nc1-c1cccnc1.Cl.Cl
A. B (A≧20>B≧10>C (minute))

Q. Answer with reported 100% inhibition time range of CCSc1ccc(-c2nc(CC(=O)O)c(-c3ccc(Cl)s3)o2)cc1
A. B (A≧20>B≧10>C (minute))

Q. Tell us which 100% inhibition time range value is on record for CC(O)c1ccc(-c2oc(-c3ccc(F)cc3)nc2CC(=O)O)s1 (centres unmarked)
A. C (A≧20>B≧10>C (minute))

Q. State, in one line, measured 100% inhibition time range of O=C(O)Cc1sc(-c2cc3ccccc3s2)nc1-c1ccc(Cl)c(F)c1
A. B (A≧20>B≧10>C (minute))

Q. Return the recorded 100% inhibition time range value; entry: O=C(O)Cc1nc(-c2ccc(F)cc2)oc1-c1ccco1
A. B (A≧20>B≧10>C (minute))

Q. Assign 100% inhibition time range to the following record: CS(=O)(=O)Nc1nc(-c2ccc(F)cc2)oc1-c1ccc(Cl)c(F)c1.[Na]
A. C (A≧20>B≧10>C (minute))

Q. Input CNC(=O)Cc1nc(-c2ccc(F)cc2)oc1-c1ccsc1 , output reported 100% inhibition time range.
A. C (A≧20>B≧10>C (minute))

Q. // Input: N#CCCc1nc(-c2ccc(F)cc2)[nH]c1-c1ccsc1 . Output its 100% inhibition time range only.
A. B (A≧20>B≧10>C (minute))

Q. Provide one value: measured 100% inhibition time range of CCNC(=O)Cc1nc(-c2ccc(F)cc2)oc1-c1ccsc1
A. B (A≧20>B≧10>C (minute))

Q. In one line, give reported 100% inhibition time range of the entry O=C(O)Cc1nc(-c2ccc(F)cc2)oc1-c1ccc2occc2c1 .
A. B (A≧20>B≧10>C (minute))

Q. Read the entry COc1ccc(-c2oc(-c3ccc(F)cc3)nc2CC(=O)O)cc1OC and write its reported 100% inhibition time range.
A. C (A≧20>B≧10>C (minute))
